Test system: PTX22 (β364) paclitaxel-selected β-tubulin mutant clone of 1A9
ASSAY: 72 h growth inhibition assay (SRB), paclitaxel-selected clone PTX22
Format: cell-based
APPLIED_CONDITIONS: Homo sapiens, read-out: IC50 against PTX22
QUANTITY_MEASURED: IC50

Exam item: Record lookup: for PTX22 (β364) paclitaxel-selected β-tubulin mutant clone of 1A9, what IC50 belongs to C/C(=C\c1ccc(C)cn1)[C@@H]1C[C@@H]2C[C@H]2CCC[C@H](C)[C@H](O)[C@@H](C)C(=O)C(C)(C)[C@@H](O)CC(=O)O1 ?
Marked response: < 10 nM
